CLhep predicted listing for selected compounds.
Assay: Clearance in rat liver microsomes
Format: ADME, Microsome
Starred links: 1 amine or outer side, 2 acyl side, 3 side chain; linkers in the order of their positions; H or OH if unused. Non-standard residues stand in square brackets, D forms with d. Residues, ends and D or L forms follow the SMILES beside them. *: point of attachment. Cyclobutyl(trans-3-NH2) = N[C@H]1C[C@H](*)C1; X4 = CCCCCCN(CCN[*:1])[C@@H](C)C(=O)[*:2]; NMeL = CN[C@@H](CC(C)C)C(=O)O; Chg = N[C@H](C(=O)O)C1CCCCC1; Dap = NC[C@H](N)C(=O)O
Parameter Measured: CLhep predicted (mL/min/kg)

- CCCCCC[C@H]1OC(=O)CNC(=O)[C@H]([C@H](C)O)NC(=O)[C@H](CO)NC(=O)[C@H]([C@H](C)CC)NC(=O)[C@H](CC(C)C)N(C)C(=O)[C@@H]1C: 37
- CCCCCCN1CCNC(=O)[C@H](CO[C@H]2C[C@H](N)C2)NC(=O)[C@H](CN)NC(=O)[C@H](C2CCCCC2)NC(=O)[C@H](CC(C)C)N(C)C(=O)[C@@H]1C (cyclo([Chg][Dap]S(Cyclobutyl(trans-3-NH2))[X4][NMeL])): 26

----------
Experiment: Clearance in rat liver microsomes
Format: ADME, Microsome
Starred links: 1 amine or outer side, 2 acyl side, 3 side chain; linkers in the order of their positions; H or OH if unused. Non-standard residues stand in square brackets, D forms with d. Residues, ends and D or L forms follow the SMILES beside them. *: point of attachment. X6 = C[C@H](CO[C@H](CC1C[C@H]2CC[C@@H](C1)C2)[C@@H](C)C(=O)[*:2])N[*:1]; dAlaψ(CH2NBu)Nle = CCCC[C@@H](C(=O)[*:2])N(CCCC)C[C@@H](C)N[*:1]; Cyclobutyl(trans-3-NH2) = N[C@H]1C[C@H](*)C1; Gly(cHept) = N[C@H](C(=O)O)C1CCCCCC1; aThr = C[C@H](O)[C@H](N)C(=O)O; NMeL = CN[C@@H](CC(C)C)C(=O)O; Chg = N[C@H](C(=O)O)C1CCCCC1; NMeNva = CCC[C@H](NC)C(=O)O; Dap = NC[C@H](N)C(=O)O
Parameter Measured: CLhep predicted (mL/min/kg)

• CCCC[C@H]1C(=O)N(C)[C@@H](CC(C)C)C(=O)N[C@@H](C2CCCCC2)C(=O)N[C@@H](CN)C(=O)N[C@@H]([C@H](C)O)C(=O)N[C@H](C)CN1CCCC (cyclo([Chg][Dap][aThr][dAlaψ(CH2NBu)Nle][NMeL])) = 27
• CCC[C@H]1C(=O)N[C@@H](C2CCCCCC2)C(=O)N[C@@H](CN)C(=O)N[C@@H](CO[C@H]2C[C@H](N)C2)C(=O)N[C@H](C)CO[C@H](CC2C[C@H]3CC[C@@H](C2)C3)[C@@H](C)C(=O)N1C (stereo partly drawn) (cyclo([Dap]S(Cyclobutyl(trans-3-NH2))[X6][NMeNva][Gly(cHept)])) = 21

----------
This section presents compounds with their documented remaining at 24 h values.
Test: Stability of the compound in human plasma assessed as parent compound remaining after 24 hrs
Type: ADME, cell-free
Conditions: read-out: Stabilty
Starred links: 1 amine or outer side, 2 acyl side, 3 side chain; linkers in the order of their positions; H or OH if unused. Non-standard residues stand in square brackets, D forms with d. Residues, ends and D or L forms follow the SMILES beside them. *: point of attachment. X6 = C[C@H](CO[C@H](CC1C[C@H]2CC[C@@H](C1)C2)[C@@H](C)C(=O)[*:2])N[*:1]; Cyclobutyl(trans-3-NH2) = N[C@H]1C[C@H](*)C1; Gly(cHept) = N[C@H](C(=O)O)C1CCCCCC1; NMeNva = CCC[C@H](NC)C(=O)O; Dap = NC[C@H](N)C(=O)O
Parameter Measured: remaining at 24 h (%)

• CCCCCC[C@H]1OC[C@H](C)NC(=O)[C@H]([C@H](C)O)NC(=O)[C@H](CN)NC(=O)[C@H](C2CCCCC2)NC(=O)[C@H](CC(C)C)N(C)C(=O)[C@@H]1C = 88
• CCC[C@H]1C(=O)N[C@@H](C2CCCCCC2)C(=O)N[C@@H](CN)C(=O)N[C@@H](CO[C@H]2C[C@H](N)C2)C(=O)N[C@H](C)CO[C@H](CC2C[C@H]3CC[C@@H](C2)C3)[C@@H](C)C(=O)N1C (stereo partly drawn) (cyclo([Dap]S(Cyclobutyl(trans-3-NH2))[X6][NMeNva][Gly(cHept)])) = 99

----------
Test: Stability of the compound in mouse plasma assessed as parent compound remaining after 24 hrs
Type: ADME, cell-free
Details: read-out: Stabilty
Starred links: 1 amine or outer side, 2 acyl side, 3 side chain; linkers in the order of their positions; H or OH if unused. Non-standard residues stand in square brackets, D forms with d. Residues, ends and D or L forms follow the SMILES beside them. *: point of attachment. dAlaψ(CH2NBu)Nle = CCCC[C@@H](C(=O)[*:2])N(CCCC)C[C@@H](C)N[*:1]; X1 = CCCCCC[C@@H](OC[C@@H](C)N[*:1])[C@@H](C)C(=O)[*:2]; Cyclobutyl(trans-3-NH2) = N[C@H]1C[C@H](*)C1; X4 = CCCCCCN(CCN[*:1])[C@@H](C)C(=O)[*:2]; Gly(cHept) = N[C@H](C(=O)O)C1CCCCCC1; aThr = C[C@H](O)[C@H](N)C(=O)O; NMeL = CN[C@@H](CC(C)C)C(=O)O; Chg = N[C@H](C(=O)O)C1CCCCC1; NMeNva = CCC[C@H](NC)C(=O)O; X2 = NC[C@H]1C[C@H](*)C1; Dap = NC[C@H](N)C(=O)O
Parameter Measured: remaining at 24 h (%)

• CCCCCCN1CCNC(=O)[C@H](CO[C@H]2C[C@H](N)C2)NC(=O)[C@H](CN)NC(=O)[C@H](C2CCCCC2)NC(=O)[C@H](CC(C)C)N(C)C(=O)[C@@H]1C (cyclo([Chg][Dap]S(Cyclobutyl(trans-3-NH2))[X4][NMeL])) = 95
• CCCC[C@H]1C(=O)N(C)[C@@H](CC(C)C)C(=O)N[C@@H](C2CCCCC2)C(=O)N[C@@H](CN)C(=O)N[C@@H]([C@H](C)O)C(=O)N[C@H](C)CN1CCCC (cyclo([Chg][Dap][aThr][dAlaψ(CH2NBu)Nle][NMeL])) = 89
• CCCC[C@H]1C(=O)N(C)[C@@H](CCC)C(=O)N[C@@H](C2CCCCC2)C(=O)N[C@@H](CN)C(=O)N[C@@H](CO[C@H]2C[C@H](N)C2)C(=O)N[C@H](C)CN1CCCC (cyclo([Chg][Dap]S(Cyclobutyl(trans-3-NH2))[dAlaψ(CH2NBu)Nle][NMeNva])) = 55
• CCCCCC[C@H]1OC[C@@H](C)NC(=O)[C@H](CO[C@H]2C[C@H](CN)C2)NC(=O)[C@H](CN)NC(=O)[C@H](C2CCCCCC2)NC(=O)[C@H](CCC)N(C)C(=O)[C@@H]1C (cyclo([Dap]S(X2)[X1][NMeNva][Gly(cHept)])) = 101

----------
Experiment: Growth inhibition of Staphylococcus aureus USA300
Starred links: 1 amine or outer side, 2 acyl side, 3 side chain; linkers in the order of their positions; H or OH if unused. Non-standard residues stand in square brackets, D forms with d. Residues, ends and D or L forms follow the SMILES beside them. dAlaψ(CH2NBu)Nle = CCCC[C@@H](C(=O)[*:2])N(CCCC)C[C@@H](C)N[*:1]; X16 = CCCC[C@@H](C(=O)[*:2])N(CCCC)CCN[*:1]; aThr = C[C@H](O)[C@H](N)C(=O)O; NMeL = CN[C@@H](CC(C)C)C(=O)O; Chg = N[C@H](C(=O)O)C1CCCCC1; Dap = NC[C@H](N)C(=O)O
Parameter Measured: MIC (µM)

• CCCCCCCCCC[C@H]1OC(=O)CNC(=O)[C@H]([C@H](C)O)NC(=O)[C@H](CO)NC(=O)[C@H]([C@H](C)CC)NC(=O)[C@H](CC(C)C)N(C)C(=O)[C@@H]1C = 25
• CCCC[C@H]1C(=O)N(C)[C@@H](CC(C)C)C(=O)N[C@@H](C2CCCCC2)C(=O)N[C@@H](CN)C(=O)N[C@@H]([C@H](C)O)C(=O)N[C@H](C)CN1CCCC (cyclo([Chg][Dap][aThr][dAlaψ(CH2NBu)Nle][NMeL])) = 71
• CCCC[C@H]1C(=O)N(C)[C@@H](CC(C)C)C(=O)N[C@@H](C2CCCCC2)C(=O)N[C@@H](CN)C(=O)N[C@@H]([C@H](C)O)C(=O)NCCN1CCCC (cyclo([Chg][Dap][aThr][X16][NMeL])) = 100
• CC[C@@H](C)[C@@H]1NC(=O)[C@H](CC(C)C)N(C)C(=O)[C@H](C)[C@@H](CCCCC(C)(C)C)OC(=O)CNC(=O)[C@H]([C@H](C)O)NC(=O)[C@H](CN)NC1=O = 100
• CCCCCC[C@H]1OC[C@@H](C)NC(=O)[C@H](COc2ccc(CN)cc2)NC(=O)[C@H](CN)NC(=O)[C@H](C2CCCCC2)NC(=O)[C@H](CCC)N(C)C(=O)[C@@H]1C = 100
• CCCCCC[C@H]1OC[C@@H](C)NC(=O)[C@H](CN(C)CCCN)NC(=O)[C@H](CN)NC(=O)[C@H](C2CCCCCC2)NC(=O)[C@H](CCC)N(C)C(=O)[C@@H]1C = 100
• CCC[C@H]1C(=O)N[C@@H](C2CCCCCC2)C(=O)N[C@@H](CN)C(=O)N[C@@H]([C@H](C)O)C(=O)NCC(=O)O[C@H](CC2CC3(CCC3)C2)[C@@H](C)C(=O)N1C = 50
• CCC[C@H]1C(=O)N[C@@H](C2CCCCCC2)C(=O)N[C@@H](CN)C(=O)N[C@@H]([C@H](C)O)C(=O)NCC(=O)O[C@H](CC2CC3CCC2C3)[C@@H](C)C(=O)N1C (stereo in doubt; 26) = 100
